- System: COLO 205 colon
- METHOD_DESCRIPTION: NCI-60 one-dose screen, 48 h (100 = growth as untreated, 0 = no growth, -100 = all killed)
- RUN_PARAMETERS: 10 µM
This is part of a sample that, as a whole, favours compounds with a hit. Of some 83,000 tested, about 20% had one in any assay.
Would you please tag the item criterion met when its growth is 70% or above, and criterion not met when it is below?

Input: // inclusive: growth at least 70%? input: O=C(Nc1ccc(OCc2nnc(-c3ccccc3)o2)c(F)c1)Nc1ccc(Cl)c(Cl)c1
Output: criterion not met

Input: Record: O=C1/C(=C/c2ccc(O)cc2)Oc2ccc(Cl)cc21
Output: criterion met

Input: Record: N#Cc1c2c([nH]c(=O)c1C(N)=O)CCCCC2
Output: criterion met

Input: Record: CCCCn1c(=O)[nH]c(N)c(C(c2ccc(Cl)cc2)c2c(N)[nH]c(=O)n(CCCC)c2=O)c1=O
Output: criterion not met

Input: Record: COCc1cc2c(cc1Br)OCO2
Output: criterion met

Input: Record: Cn1c(N)c(N=Cc2ccccc2)c(=O)n(C)c1=O
Output: criterion met

Input: Record: FC(F)(F)c1ccc(-c2cnc(Cl)nc2NC2CCCCCC2)cc1
Output: criterion not met

Input: Record: COc1ccc(-c2n/c(=C\c3c(O)[nH]c4ccccc34)cc3c2=Nc2ccccc2-3)cc1
Output: criterion not met

Input: Record: CC(=O)Oc1ccc(C2=Cc3ccc(OC(C)=O)cc3OC2C)cc1 (stereo not given)
Output: criterion met

Input: Record: CCCCCCCCCCCCc1ccc(C(=O)/C=C/C(=O)O)cc1
Output: criterion not met

Input: Record: O=c1[nH]c(=O)n(C2C[C@@H](O)[C@@H](CO)O2)cc1F (stereo not given in full)
Output: criterion not met

Input: Record: Cc1ccc(S(=O)(=O)Oc2ccccc2-c2ccccc2)cc1
Output: criterion not met

Input: Record: COc1cc(Nc2ccnc(N3CCN(c4ccnc5cc(Cl)ccc45)CC3)n2)cc(OC)c1
Output: criterion not met

Input: Record: CC(=O)Nc1nc(C)c(C(=O)N/N=C/c2cccn2C)s1
Output: criterion met

Data origin, for the record: PubChem BioAssay (NCI)
